The entries below are paired with their reported pIC50.
target: ULK1 (Homo sapiens (Human), UniProt O75385)
Sequence (O75385 whole entry, species assumed): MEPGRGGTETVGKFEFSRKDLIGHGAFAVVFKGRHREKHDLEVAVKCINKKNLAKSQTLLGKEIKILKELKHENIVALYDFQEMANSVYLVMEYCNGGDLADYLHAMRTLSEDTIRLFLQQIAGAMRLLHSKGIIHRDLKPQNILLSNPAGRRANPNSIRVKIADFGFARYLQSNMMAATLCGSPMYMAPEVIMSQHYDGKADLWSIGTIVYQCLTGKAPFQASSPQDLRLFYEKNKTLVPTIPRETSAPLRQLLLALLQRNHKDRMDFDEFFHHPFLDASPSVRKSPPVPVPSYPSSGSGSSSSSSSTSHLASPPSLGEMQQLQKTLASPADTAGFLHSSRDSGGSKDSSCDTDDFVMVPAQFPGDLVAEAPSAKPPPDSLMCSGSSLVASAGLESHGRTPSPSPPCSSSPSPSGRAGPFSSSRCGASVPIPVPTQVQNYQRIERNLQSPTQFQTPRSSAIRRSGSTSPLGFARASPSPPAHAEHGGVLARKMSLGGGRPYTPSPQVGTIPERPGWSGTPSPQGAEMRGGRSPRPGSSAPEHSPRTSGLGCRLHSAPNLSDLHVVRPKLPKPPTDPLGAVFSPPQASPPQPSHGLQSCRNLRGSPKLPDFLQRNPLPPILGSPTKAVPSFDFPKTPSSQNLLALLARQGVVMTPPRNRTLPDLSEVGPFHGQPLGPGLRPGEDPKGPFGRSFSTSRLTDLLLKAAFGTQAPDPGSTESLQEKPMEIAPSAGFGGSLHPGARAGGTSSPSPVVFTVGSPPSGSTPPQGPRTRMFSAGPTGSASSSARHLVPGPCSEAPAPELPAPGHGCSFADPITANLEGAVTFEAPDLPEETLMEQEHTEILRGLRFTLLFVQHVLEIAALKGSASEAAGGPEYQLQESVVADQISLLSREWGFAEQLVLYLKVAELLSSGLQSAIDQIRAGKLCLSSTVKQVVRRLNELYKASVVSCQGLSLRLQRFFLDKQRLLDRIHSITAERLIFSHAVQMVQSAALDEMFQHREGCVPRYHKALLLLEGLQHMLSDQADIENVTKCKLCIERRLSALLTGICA
pIC50: −log10 of the molar value.
Readout: pIC50

>>> measured_result("O=C1CCc2cc(Nc3ncc(C(F)(F)F)c(/C=C/c4ccccc4)n3)ccc2N1")
"> 6.70"
>>> measured_result("COc1c(C)cnc(CNc2nc(Nc3ccc4c(c3)CCC(=O)N4)ncc2C(F)(F)F)c1C")
"> 6.70"
>>> measured_result("FC(F)(F)c1cnc(Nc2cnc3[nH]ccc3c2)nc1NC1CC1 [152a]")
"> 6.70"
>>> measured_result("CNC(=O)c1ccccc1Oc1nc(Nc2ccccc2)ncc1Br")
"< 5.70"
>>> measured_result("CNC(=O)c1ccccc1Nc1nc(Nc2ccc3c(c2)CCC(=O)N3)ncc1Cl")
"> 6.70"
>>> measured_result("COc1cccc(Nc2nc(Nc3ccc4c(c3)OCCO4)ncc2C(F)(F)F)c1")
"> 6.70"
>>> measured_result("CNC(=O)c1ccccc1Nc1nc(Nc2ccccc2Cl)ncc1Cl")
"5.70 to 6.70"
>>> measured_result("CNC(=O)c1ccccc1Nc1nc(Nc2ccc3[nH]ccc3c2)ncc1Cl")
"5.70 to 6.70"
>>> measured_result("O=C1CCc2cc(Nc3ncc(Br)c(Nc4ccccn4)n3)ccc2N1")
"> 6.70"
>>> measured_result("O=C1CCc2cc(Nc3nc(NC4CC4)ncc3C(F)(F)F)ccc2N1 [131b]")
"> 6.70"
>>> measured_result("CNC(=O)c1ccccc1Nc1nc(Nc2ccc(N3CCOCC3)cc2OC)ncc1C(F)(F)F")
"> 6.70"
>>> measured_result("COc1cc(N2CCOCC2)ccc1Nc1ncc(Br)c(Nc2ccccc2S(=O)(=O)N(C)C)n1")
"> 6.70"
>>> measured_result("COCCNc1ncc(C(F)(F)F)c(Nc2ccc3c(c2)CCC(=O)N3)n1 [151b]")
"> 6.70"
>>> measured_result("COc1cccc(Nc2nc(Nc3ccc4c(c3)CCC(=O)N4)ncc2C(F)(F)F)c1")
"> 6.70"
>>> measured_result("CNC(=O)c1ccccc1Nc1nc(Nc2cc(OC)c(OC)c(OC)c2)ncc1C(F)(F)F")
"< 5.70"
>>> measured_result("Brc1cnc(Nc2ccc3[nH]ccc3c2)nc1Nc1ccccn1")
"> 6.70"
>>> measured_result("FC(F)(F)c1cnc(Nc2cnc3[nH]ccc3c2)nc1Nc1ccccc1 [181a]")
"> 6.70"
>>> measured_result("CNc1nc(Nc2cnc3[nH]ccc3c2)ncc1C(F)(F)F [182a]")
"> 6.70"
>>> measured_result("O=C1CCc2cc(Nc3ncc(C(F)(F)F)c(NC4CCCC4)n3)ccc2N1 [160a]")
"> 6.70"
>>> measured_result("CNC(=O)c1ccccc1Oc1nc(Nc2ccc(Cl)c(Cl)c2)ncc1C(F)(F)F [108a]")
"< 5.70"
>>> measured_result("CNC(=O)c1ccccc1Oc1nc(Nc2cc(OC)ccc2C)ncc1C(F)(F)F")
"< 5.70"
>>> measured_result("COc1ccc(Nc2nc(Nc3ccc(N4CCOCC4)cc3OC)ncc2Cl)cn1")
"< 5.70"
>>> measured_result("CNc1ncc(C(F)(F)F)c(Nc2cnc3[nH]ccc3c2)n1 [182b]")
"5.70 to 6.70"
>>> measured_result("CNC(=O)c1ccccc1Nc1nc(Nc2cc(OC)ccc2C)ncc1Cl")
"> 6.70"
>>> measured_result("Oc1ncc(C(F)(F)F)c(Nc2ccccc2N2CCOCC2)n1 [118c]")
"< 5.70"
>>> measured_result("COc1cc(Nc2ncc(C(F)(F)F)c(NCc3cccc(S(C)(=O)=O)c3)n2)cc(OC)c1OC")
"> 6.70"
>>> measured_result("CNC(=O)c1ccccc1Nc1nc(Nc2cc(OC)ccc2C)ncc1Br")
"> 6.70"
>>> measured_result("CNC(=O)c1ccccc1Nc1nc(Nc2cc(OC)c(OC)c(OC)c2)ncc1Br")
"> 6.70"
>>> measured_result("CNC(=O)c1ccccc1Nc1nc(Nc2cc(OC)ccc2C)ncc1C(F)(F)F")
"> 6.70"
>>> measured_result("FC(F)(F)c1cnc(Nc2cnc3[nH]ccc3c2)nc1Nc1ccc2c(c1)OCO2")
"> 6.70"
>>> measured_result("COc1ccc(Nc2nc(Nc3cc(OC)c(OC)c(OC)c3)ncc2C(F)(F)F)cn1")
"> 6.70"
>>> measured_result("COc1ccc(OC)c(Nc2ncc(C(F)(F)F)c(O)n2)c1 [109b]")
"< 5.70"
>>> measured_result("CNC(=O)c1ccccc1Oc1nc(Nc2cc(Br)ccc2C)ncc1Br")
"< 5.70"
>>> measured_result("COc1cc(N2CCOCC2)ccc1Nc1nc(Nc2ccc3c(c2)CCC(=O)N3)ncc1C(F)(F)F [123a]")
"> 6.70"
>>> measured_result("CNC(=O)c1ccccc1Nc1nc(Nc2ccc3c(c2)CCC(=O)N3)ncc1Br")
"> 6.70"
>>> measured_result("O=C1CCc2cc(Nc3ncc(C(F)(F)F)c(Nc4ccc5c(c4)OC(F)(F)O5)n3)ccc2N1 [178a]")
"> 6.70"

###

target: UniProt:O75385
pIC50: −log10 of the molar value.
Readout: pIC50

>>> measured_result("CNS(=O)(=O)c1ccccc1Nc1nc(Nc2ccc(N3CCOCC3)cc2OC)ncc1Br [compound 75]")
"5.70 to 6.70"
>>> measured_result("CNC(=O)c1ccccc1Oc1nc(Nc2ccc(C)c(Br)c2)ncc1C(F)(F)F [compound 102]")
"< 5.70"
>>> measured_result("CNC(=O)c1ccccc1Nc1nc(Nc2ccc(N3CCOCC3)cc2OC)ncc1Cl [compound 12]")
"> 6.70"
>>> measured_result("Fc1c(Nc2ncc(C(F)(F)F)c(Nc3ccc4c(c3)OCO4)n2)cccc1C(F)(F)F [141a]")
"< 5.70"
>>> measured_result("COc1cc(Nc2ncc(C(F)(F)F)c(Nc3ccccn3)n2)cc(OC)c1OC [compound 38]")
"5.70 to 6.70"
>>> measured_result("COc1cccc(Nc2nc(Nc3ccc4c(c3)CCC(=O)N4)ncc2Br)c1 [compound 142]")
"> 6.70"
>>> measured_result("CNC(=O)c1ccccc1Oc1nc(Nc2ccccc2OC)ncc1C(F)(F)F [compound 103]")
"< 5.70"
>>> measured_result("Brc1cnc(Nc2cnc3[nH]ccc3c2)nc1NC1CC1 [compound 174]")
"> 6.70"
>>> measured_result("FC(F)(F)c1cnc(Nc2ccc3c(c2)OCO3)nc1NC1CCC1 [168b]")
"5.70 to 6.70"
>>> measured_result("O=C1CCc2cc(Nc3ncc(C(F)(F)F)c(NC4CCC4)n3)ccc2N1 [150a]")
"> 6.70"

###

target: UniProt:O75385
Readout: IC50

>>> measured_result("O=C1CCc2cc(Nc3ncc(C(F)(F)F)c(Nc4cccc5ccccc45)n3)ccc2N1 [126a]")
"200 to 2000 nM"
>>> measured_result("CNC(=O)c1ccccc1Oc1nc(Nc2cc(Br)ccc2C)ncc1C(F)(F)F")
"> 2000 nM"
>>> measured_result("O=C1CCc2cc(Nc3ncc(C(F)(F)F)c(Nc4ccc5c(c4)CCC5)n3)ccc2N1")
"< 200 nM"

###

The entries below are paired with their reported IC50.
target: ULK1 (Homo sapiens (Human), UniProt O75385)
Readout: IC50

>>> measured_result("COc1ccc(C)c(Nc2ncc(Cl)c(Nc3ccc(OC)nc3)n2)c1")
"> 2 µM"
>>> measured_result("COc1ccc(Nc2nc(Nc3cc(OC)c(OC)c(OC)c3)ncc2Br)cn1")
"< 0.2 µM"
>>> measured_result("CNC(=O)c1ccccc1Nc1nc(Nc2ccc3c(c2)OCO3)ncc1Cl")
"< 0.2 µM"
>>> measured_result("CNC(=O)c1ccccc1Oc1nc(Nc2ccc(C)cc2Cl)ncc1C(F)(F)F")
"> 2 µM"
>>> measured_result("COc1cc(N2CCOCC2)ccc1Nc1ncc(C(F)(F)F)c(Nc2ccc3c(c2)CCC(=O)N3)n1 [123b]")
"< 0.2 µM"

###

Assay system ULK1 (Homo sapiens (Human)); read-out recorded as IC50.
Readout: IC50

>>> measured_result("FC(F)(F)c1cnc(NC2CCC2)nc1Nc1cnc2[nH]ccc2c1 [161b]")
"< 0.2 µM"
>>> measured_result("CNC(=O)c1ccccc1Nc1nc(Nc2ccccc2C)ncc1Cl [compound 53]")
"> 2 µM"
>>> measured_result("CNC(=O)c1ccccc1Oc1nc(Nc2cc(OC)c(OC)c(OC)c2)ncc1C(F)(F)F [compound 92]")
"< 0.2 µM"
>>> measured_result("CNC(=O)c1ccccc1Nc1nc(Nc2ccc(N3CCOCC3)cc2OC)ncc1Br [compound 13]")
"0.2 to 2 µM"
>>> measured_result("COCCNc1nc(Nc2cnc3[nH]ccc3c2)ncc1C(F)(F)F [compound 179]")
"0.2 to 2 µM"
